Please provide measured viability, T/C for the entries that follow.
tested on: SW 1271 complex tumor spheroid viability; experiment: Anticancer human tumor SW 1271 cell line growth inhibition; details: second compound 0.0003 µM; first compound 0.949 µM; stronger effect = lower value;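 further: spheroids exposed to agents for seven days before readout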;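 on viability, T/C: percent of DMSO vehicle control luminescence so 100% = vehicle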
Answers are plain numbers, in %.

| compound | measured property | display unit | measurement |
| --- | --- | --- | --- |
| Cc1sc2c(c1C)C(c1ccc(Cl)cc1)=NC(CC(=O)Nc1ccc(O)cc1)c1nnc(C)n1-2 (centres undefined) + COc1cc2c(cc1O)CCNC21CSC2c3c(OC(C)=O)c(C)c4c(c3C(COC1=O)N1C(O)C3Cc5cc(C)c(OC)c(O)c5C(C21)N3C)OCO4 | viability, T/C | % | 1.45 |
| Cn1ncnc1[C@H]1c2n[nH]c(=O)c3cc(F)cc(c23)N[C@@H]1c1ccc(F)cc1 + COc1cc2c(cc1O)CCNC21CSC2c3c(OC(C)=O)c(C)c4c(c3C(COC1=O)N1C(O)C3Cc5cc(C)c(OC)c(O)c5C(C21)N3C)OCO4 | viability, T/C | % | 27.4 |
| O=C(c1cc(Cc2n[nH]c(=O)c3ccccc23)ccc1F)N1CCN(C(=O)C2CC2)CC1 + COc1cc2c(cc1O)CCNC21CSC2c3c(OC(C)=O)c(C)c4c(c3C(COC1=O)N1C(O)C3Cc5cc(C)c(OC)c(O)c5C(C21)N3C)OCO4 | viability, T/C | % | 32.8 |

// moving on: another record for viability, T/C
Entry CNCc1ccc(-c2cc(-c3nc(-c4ccc(S(=O)(=O)C(C)C)cc4)cnc3N)on2)cc1 + COc1cc2c(cc1O)CCNC21CSC2c3c(OC(C)=O)c(C)c4c(c3C(COC1=O)N1C(O)C3Cc5cc(C)c(OC)c(O)c5C(C21)N3C)OCO4 ; viability, T/C = 19.5

* * *

Please respond with reported viability, T/C for every item in the list.
system: SW 1271 complex tumor spheroid viability; assay: Anticancer human tumor SW 1271 cell line growth inhibition; details: second compound 100 µM; first compound 10 µM; stronger effect = lower value;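 further: spheroids exposed to agents for seven days before readout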;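 on viability, T/C: percent of DMSO vehicle control luminescence so 100% = vehicle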

# annotated cases, reported viability, T/C shown
| compound | tgt | viability, T/C |
| --- | --- | --- |
| Cc1cc(C)c(CNC(=O)c2cc(-c3ccc(CN4CCOCC4)cc3)cc3c2cnn3C2CCCC2)c(=O)[nH]1 + Cn1nnc2c(C(N)=O)ncn2c1=O | SW 1271 complex tumor spheroid viability | 52.7% |
| CC1COCCN1c1cc(-c2ccnn2C)c2ccnc(-c3ccn[nH]3)c2n1 (stereo unspecified) + Cn1nnc2c(C(N)=O)ncn2c1=O | SW 1271 complex tumor spheroid viability | 2.85% |
| COc1ccc([C@@H](O)c2cc(-c3ncnc4cc(N5CCOCC5)ccc34)c(F)cc2Cl)nn1 + Cn1nnc2c(C(N)=O)ncn2c1=O | SW 1271 complex tumor spheroid viability | 9.15% |
| [2H]c1nc(C)nc([2H])c1-c1cc(NC[C@@H](C)c2cccc3c(C(=O)NC)ccnc23)ncn1 + Cn1nnc2c(C(N)=O)ncn2c1=O | SW 1271 complex tumor spheroid viability | 64.7% |
| CC(C)n1c(=O)n(C)c2cnc3cc(F)c(-c4ccc(OCCCN5CCCCC5)nc4)cc3c21 + Cn1nnc2c(C(N)=O)ncn2c1=O | SW 1271 complex tumor spheroid viability | 24.9% |

--- query ---
Per the records, this compound ( COc1cc(C)[nH]c(=O)c1CN1CCc2c(Cl)cc(C(OC)C3COC3)c(Cl)c2C1=O (stereo unspecified) + Cn1nnc2c(C(N)=O)ncn2c1=O ) has viability, T/C equal to 76.1%

* * *

Tested on: SW 1271 complex tumor spheroid viability
Test: Anticancer human tumor SW 1271 cell line growth inhibition; active = viability on the fitted dose curve at most 10% of control; inactive = the rest;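 further: spheroids exposed to agents for seven days before readout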
Settings: second compound 94.9 pM; first compound 0.949 µM
Description: Multicellular complex tumor spheroid response to DNA repair inhibitors in combination with DNA-damaging drugs This study explores the anticancer activities of DNA-damaging drugs and inhibitors of DNA damage repair, both as single agents and in combinations. […] Twenty-six patient-derived or established malignant cell lines were evaluated representing sarcoma, melanoma, small cell lung cancer (SCLC), non-small cell lung cancer (NSCLC), as well as bladder, ovarian and pancreatic cancers. […]
Response enum: Y = active, N = inactive

stdin: Tell me the assay call for Cc1sc2c(c1C)C(c1ccc(Cl)cc1)=NC(CC(=O)Nc1ccc(O)cc1)c1nnc(C)n1-2 (centres undefined) + COc1cc2c(cc1O)CCNC21CSC2c3c(OC(C)=O)c(C)c4c(c3C(COC1=O)N1C(O)C3Cc5cc(C)c(OC)c(O)c5C(C21)N3C)OCO4 please.
stdout: Y

stdin: Test call for this compound, please: O=C(c1cc(Cc2n[nH]c(=O)c3ccccc23)ccc1F)N1CCN(C(=O)C2CC2)CC1 + COc1cc2c(cc1O)CCNC21CSC2c3c(OC(C)=O)c(C)c4c(c3C(COC1=O)N1C(O)C3Cc5cc(C)c(OC)c(O)c5C(C21)N3C)OCO4
stdout: N

stdin: Entry Cn1ncnc1[C@H]1c2n[nH]c(=O)c3cc(F)cc(c23)N[C@@H]1c1ccc(F)cc1 + COc1cc2c(cc1O)CCNC21CSC2c3c(OC(C)=O)c(C)c4c(c3C(COC1=O)N1C(O)C3Cc5cc(C)c(OC)c(O)c5C(C21)N3C)OCO4 : call = ?
stdout: N

stdin: Assay result, entry CNCc1ccc(-c2cc(-c3nc(-c4ccc(S(=O)(=O)C(C)C)cc4)cnc3N)on2)cc1 + COc1cc2c(cc1O)CCNC21CSC2c3c(OC(C)=O)c(C)c4c(c3C(COC1=O)N1C(O)C3Cc5cc(C)c(OC)c(O)c5C(C21)N3C)OCO4 — outcome?
stdout: N

* * *

tested on: SW 1271 complex tumor spheroid viability; test: Anticancer human tumor SW 1271 cell line growth inhibition; conditions: curve of first compound; second compound 94.9 pM;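 further: spheroids exposed to agents for seven days before readout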
measured property: IC50

# batch size: 3; output IC50 per entry
1. CC1COCCN1c1cc(-c2ccnn2C)c2ccnc(-c3ccn[nH]3)c2n1 (stereo not drawn) + COc1cc2c(cc1O)CCNC21CSC2c3c(OC(C)=O)c(C)c4c(c3C(COC1=O)N1C(O)C3Cc5cc(C)c(OC)c(O)c5C(C21)N3C)OCO4
2. Cn1ncnc1[C@H]1c2n[nH]c(=O)c3cc(F)cc(c23)N[C@@H]1c1ccc(F)cc1 + COc1cc2c(cc1O)CCNC21CSC2c3c(OC(C)=O)c(C)c4c(c3C(COC1=O)N1C(O)C3Cc5cc(C)c(OC)c(O)c5C(C21)N3C)OCO4
3. [2H]c1nc(C)nc([2H])c1-c1cc(NC[C@@H](C)c2cccc3c(C(=O)NC)ccnc23)ncn1 + COc1cc2c(cc1O)CCNC21CSC2c3c(OC(C)=O)c(C)c4c(c3C(COC1=O)N1C(O)C3Cc5cc(C)c(OC)c(O)c5C(C21)N3C)OCO4

stdout:
< 31.6 nM
< 9.49 nM
> 10000 nM

* * *

Tested on: SW 1271 complex tumor spheroid viability
Assay: Anticancer human tumor SW 1271 cell line growth inhibition;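 further: spheroids exposed to agents for seven days before readout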
Details: curve of first compound; second compound 100 µM
Description: Multicellular complex tumor spheroid response to DNA repair inhibitors in combination with DNA-damaging drugs This study explores the anticancer activities of DNA-damaging drugs and inhibitors of DNA damage repair, both as single agents and in combinations. […] Twenty-six patient-derived or established malignant cell lines were evaluated representing sarcoma, melanoma, small cell lung cancer (SCLC), non-small cell lung cancer (NSCLC), as well as bladder, ovarian and pancreatic cancers. […]
For each record, write down the corresponding pIC50.
Answers are plain numbers, as −log10 of the molar value.

Example cases with answers are listed next.
| compound | pIC50 |
| --- | --- |
| CC(C)n1c(=O)n(C)c2cnc3cc(F)c(-c4ccc(OCCCN5CCCCC5)nc4)cc3c21 + Cn1nnc2c(C(N)=O)ncn2c1=O | 5.98 |
| CNCc1ccc(-c2cc(-c3nc(-c4ccc(S(=O)(=O)C(C)C)cc4)cnc3N)on2)cc1 + Cn1nnc2c(C(N)=O)ncn2c1=O | 7.28 |

Record COc1ccc([C@@H](O)c2cc(-c3ncnc4cc(N5CCOCC5)ccc34)c(F)cc2Cl)nn1 + Cn1nnc2c(C(N)=O)ncn2c1=O , field pIC50: 6.09
